System: a variety of cell types that are representative of different cancers
Assay: Alamar Blue cell viability assay, variety of cell types representative of different cancers (Tables 12-14)
Type: cell-based
Conditions: Homo sapiens, COLO 205, COLO-205, Colorectal, Epithelial; read-out: IC50
Parameter Measured: IC50 (nM)
# output: bare number, implied unit nM

**Q:** Fill blank: measured IC50 of the compound Cc1cnc(CNC(=O)c2c(=O)c3ccc(N4CCCN(C)CC4)nc3n3c2sc2ccccc23)cn1 is ____.
**A:** 96

====

Tested on: HCT-116 human colorectal carcinoma cells
Assay: Alamar Blue (AB) cell proliferation assay, HCT-116
Type: cell-based
Conditions: 96 h, Alamar Blue cell proliferation inhibition, HCT-116, four days
Parameter Measured: pIC50
Field pIC50 (float): negative decimal logarithm of the concentration in molar.

Worked cases, answers included:
Compound	pIC50
Cn1cncc1CNC(=O)c1c(=O)c2ccc(N3CCOCC3)nc2n2c1sc1ccccc12	6.76
CN1CCCC(NC(=O)c2c(=O)c3cc(F)c(N4CCOCC4)nc3n3c2sc2ccccc23)C1 (stereo not drawn)	7.57
O=C(NCCN1CC=CC1)c1c(=O)c2ccc(N3CCOCC3)nc2n2c1sc1ccccc12	6.89
Cn1ccnc1CNC(=O)c1c(=O)c2cc(F)c(N3CCOCC3)nc2n2c1sc1ccccc12	6.70
CN1CCCN(C(=O)c2c(=O)c3cc(F)c(N4CCOCC4)nc3n3c2sc2ccccc23)CC1	6.52

**Q:** Which value of pIC50 has been reported for O=C(NCCNC1CC1)c1c(=O)c2cc(F)c(N3CCOCC3)nc2n2c1sc1ccccc12 in the records?
**A:** 6.88

**Q:** What pIC50 value was documented for this compound, CN1CCN(C(=O)c2c(=O)c3cc(F)c(N4CCOCC4)nc3n3c2sc2ccccc23)CC1 ?
**A:** 6.41

**Q:** # lookup: pIC50 of Cn1ccnc1CNC(=O)c1c(=O)c2cc(N3CCOCC3)nnc2n2c1sc1ccccc12
**A:** 6.76

**Q:** Please give the measured pIC50 for this compound: CN1CCN(c2nc3c(cc2F)c(=O)c(C(=O)NCc2cn(C)cn2)c2sc4ccccc4n23)CC1
**A:** 6.52

====

Test system: a variety of cell types that are representative of different cancers
Assay: Alamar Blue cell viability assay, variety of cell types representative of different cancers (Tables 12-14)
Format: cell-based
Details: Homo sapiens, PC-3, PC3 cells, Table 14; read-out: AB: PC3 (IC50)
Parameter Measured: IC50 (nM)
# output: bare number, implied unit nM

Take a look at these entries with their results.
Chemical String	Parameter Measured	Measured Result
CN1CCCN(c2nc3c(cc2F)c(=O)c(C(=O)NCc2cccnc2)c2sc4ccccc4n23)CC1	IC50	2480
CN1CCCN(c2nc3c(cc2F)c(=O)c(C(=O)NCCCO)c2sc4ccccc4n23)CC1	IC50	2640
CN1CCCN(c2nc3c(cc2F)c(=O)c(C(=O)NCc2ccccn2)c2sc4ccccc4n23)CC1	IC50	7770
CN1CCCN(c2nc3c(cc2F)c(=O)c(C(=O)N2CCOCC2)c2sc4ccccc4n23)CC1	IC50	1210
CN1CCCN(c2nc3c(cc2F)c(=O)c(C(=O)NCc2ccncc2)c2sc4ccccc4n23)CC1	IC50	6590

**Q:** Recorded IC50 for CN1CCCN(c2nc3c(cc2F)c(=O)c(C(=O)NN2CCOCC2)c2sc4ccccc4n23)CC1 , please?
**A:** 1800

====

Test system: a variety of cell types that are representative of different cancers
Assay: Alamar Blue cell viability assay, variety of cell types representative of different cancers (Tables 12-14)
Assay type: cell-based
Settings: Homo sapiens, K562, K-562 cells, Table 14; read-out: AB: K-562 (IC50)
IC50 strictly under 100 nM means satisfied; at 100 nM or over means not satisfied.

Consider the following illustrative entries.
Chemical String	Group
CN1CCCN(c2nc3c(cc2F)c(=O)c(C(=O)NCc2ccccn2)c2sc4ccccc4n23)CC1	not satisfied
CN1CCCN(c2nc3c(cc2F)c(=O)c(C(=O)NCCCO)c2sc4ccccc4n23)CC1	satisfied

**Q:** Does this compound meet the criterion IC50 < 100 nM? CN1CCCN(c2nc3c(cc2F)c(=O)c(C(=O)NN2CCOCC2)c2sc4ccccc4n23)CC1
**A:** not satisfied

**Q:** Does the reported IC50 of CN1CCCN(c2nc3c(cc2F)c(=O)c(C(=O)NCc2cccnc2)c2sc4ccccc4n23)CC1 stay below 100 nM?
**A:** satisfied

**Q:** Take the compound CN1CCCN(c2nc3c(cc2F)c(=O)c(C(=O)NCc2ccncc2)c2sc4ccccc4n23)CC1 and say whether its IC50 is less than 100 nM.
**A:** satisfied

**Q:** I wonder whether CN1CCCN(c2nc3c(cc2F)c(=O)c(C(=O)N2CCOCC2)c2sc4ccccc4n23)CC1 has IC50 below 100 nM. Can you tell?
**A:** not satisfied

====

Each entry below lists one item and its recorded pIC50 value.
Tested on: HCT-116 human colorectal carcinoma cells
Assay: Alamar Blue (AB) cell proliferation assay, HCT-116
Format: cell-based
Settings: 96 h, Alamar Blue cell proliferation inhibition, HCT-116, four days
Notebook: values listed as pIC50 are -log10 of the concentration (mol/L).

Compound	Target Or System	pIC50
O=C(NCCn1ccnc1)c1c(=O)c2ccc(N3CCOCC3)nc2n2c1sc1ccccc12	HCT-116 human colorectal carcinoma cells	6.33

**Q:** Reported pIC50 for CN1CCN(c2ccc3c(=O)c(C(=O)NCc4ccccn4)c4sc5ccccc5n4c3n2)CC1 : what is it?
**A:** 6.83

====

Tested on: a variety of cell types that are representative of different cancers
Experiment: Alamar Blue cell viability assay, variety of cell types representative of different cancers (Tables 12-14)
Type: cell-based
Details: Homo sapiens, PC-3, PC3 cells, Table 13; read-out: AB: PC3 (IC50)
Parameter Measured: IC50 (µM)
Express it in µM; write the number only.

Recorded IC50, per entry:
Compound	IC50 / µM
COCCNC(=O)c1c(=O)c2ccc(NCC(O)c3ccccc3)nc2n2c1sc1ccccc12 (centres unmarked)	3.74
CN1CCN(C(=O)c2c(=O)c3ccc(NCC(O)c4ccccc4)nc3n3c2sc2ccccc23)CC1 (centres unmarked)	6.67
O=C(NCC1CC1)c1c(=O)c2ccc(NCC(O)c3ccccc3)nc2n2c1sc1ccccc12 (centres unmarked)	6.08

Then there is this compound:
**Q:** Which IC50 is listed for CN1CCCCC1CNC(=O)c1c(=O)c2ccc(NCC(O)c3ccccc3)nc2n2c1sc1ccccc12 (centres unmarked) ?
**A:** 0.633

====

Below, each entry is listed with its recorded bioavailability.
Test: Pharmacokinetic evaluation IV bolus and oral (bioavailability) in ICR mice
Type: in vivo
Settings: mouse, plasma, IV 5 mg/kg and PO 25 mg/kg, read-out: Bioavailability (% F)
The reply should contain only the number, in %.

Example compounds with recorded bioavailability:
Compound	Parameter Measured	Measured Result
Cn1ccnc1CNC(=O)c1c(=O)c2ccc(N3CCOCC3)nc2n2c1sc1ccccc12	bioavailability	17.9
CN1CCCC1CCNC(=O)c1c(=O)c2cc(F)c(N3CCOCC3)nc2n2c3ccccc3n(C)c12 (stereo not drawn)	bioavailability	10.4
CN1CCN(c2ccc3c(=O)c(C(=O)NCc4ccccn4)c4sc5ccccc5n4c3n2)CC1	bioavailability	41.4
O=C(c1c(=O)c2ccc(N3CCOCC3)nc2n2c1sc1ccccc12)N1CCN(c2ncccn2)CC1	bioavailability	31.1
Cn1cncc1CNC(=O)c1c(=O)c2ccc(N3CCOCC3)nc2n2c1sc1ccccc12	bioavailability	12.4

**Q:** Tell me the measured bioavailability of O=C(NCCNC1CC1)c1c(=O)c2ccc(N3CCOCC3)nc2n2c1sc1ccccc12 [drawing 604] , please.
**A:** 43.3

====

Test system: a variety of cell types that are representative of different cancers
Assay: Alamar Blue cell viability assay, variety of cell types representative of different cancers (Tables 12-14)
Type: cell-based
Details: Homo sapiens, MDA-MB-231, MDA-MB-231, Breast, Epithelial; read-out: IC50
# IC50 values compiled below
Your answer should be a plain number; it is taken to be in nM.

Before answering, review these 2 worked examples.
Chemical String	Parameter Measured	Measured Result
O=C(NCCNC1CC1)c1c(=O)c2ccc(N3CCOCC3)nc2n2c1sc1ccccc12	IC50	139
Cc1cnc(CNC(=O)c2c(=O)c3ccc(N4CCCN(C)CC4)nc3n3c2sc2ccccc23)cn1	IC50	52

The record that follows has no IC50 shown yet.
**Q:** Name the reported IC50 value associated with the compound Cc1cnc(CNC(=O)c2c(=O)c3ccc(N4CCN(C)CC4)nc3n3c2sc2ccccc23)cn1
**A:** 105

Values from patent US8853234B2
